Assay details: protease stability score; higher = more stable; yeast display proteolysis, trypsin and chymotrypsin;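 further: relative to predicted unfolded state with 0 unfolded-like and 1 meaning tenfold more protease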
Task for the reader: assign each of the following sequences its reported protease stability score.
Please state the value as a number alone, without comment.

# get_value(readout='protease stability score', item= DEEEQRIEEMLKKWLEAMETGDEDLEKQLADPNVRFHIGDKEHVGREELSQVKKRLGIKVMILHDERVDRQGDWIVMHLDIILEFDGRRFRVRFNLFVEKIDGRWLVKKVEIHLR )
0.936

# get_value(readout='protease stability score', item= SEDERQAEEASEQFLRSVETGDFDELSRLFDPDMKVVFNGKELHGRETYIRLERERRRDLGIKHVKVRVKDFRIINGRLHLHTELEFNVGDKSFTHESRYTWEKVNGRWVIRSVDID )
2.15

# get_value(readout='protease stability score', item= HEDEELSRKAVELMLELIMTGDEDTIRSLADPDTRIEINGRHHHGRHLMVEFMREWFRRYPNVQLDVHSLDIDLFNGRVLIQINLEIRIGDKHHRVRINIHADKVDGRWRLKEVRIEIK )
1.5

# get_value(readout='protease stability score', item= DEEEHDARELARIVIEQFLTGNEDMLREFMDPNTRLHVNGVHRHGRESMVIMLRQLRTKRVHIKSIRIIGEKVDVDGILNGEVNGVEDNHQVHFHLIKVDGQWYIHHVIIR )
1.39

# get_value(readout='protease stability score', item= SELEHEMVEFFRLLVHAWRTGNEELAHRLIDPNVRLDVNGRHFHGWEEFFRFYKEIRLKDADLDSFRIIDGRVELDGTMHMEQGDKSRSVESHVLLEKIDGRWIVRSVRFH )
1.44

# get_value(readout='protease stability score', item= DEDEHKYRRAAEEFFKILRTGDEDLWKRYADPTPILLLLVGDKIDEYHGMEEVMRVLHEEWRRLGVDHMHVKRVDLQGEKVEMDFTRHIGDKTIRITIIVVVIDGRMKSVEIRTH )
0.8

# get_value(readout='protease stability score', item= DEDREIMERFIHILAEVWRTGDEHSLERLFDPNYKTLYDGRDVHGRETHIEILRTLGLERIEVRIKRFRVQGDKLHVNVELDVNGRTTEVEIRWRKIDGRWINHDMEIE )
1.39

# get_value(readout='protease stability score', item= DEDSEQARKFTELLFESIRTGDWKSLERLFDPNTRLEVGEFEHHGMEEATKFLIELRLEDFHIHSTKIDIQGEWIHIRLDGVERGYIGDKKRDTRSHIRLDNLKINGRWINQRLIIEIR )
1.13

# get_value(readout='protease stability score', item= DEDERTFRTAITLLLRDMHTGDEESFEKMVDPRTRLRYNGKELHGRDAYEFSLEELGVKHIEFKDMRVQGDFIWLEGTVNVNGKKIKLILIILKVDGKWIIHSIHLH )
0.799

# get_value(readout='protease stability score', item= DEVEHHMKTITDRLLTAIETGDEDEWERLLDPRVRVDIGDKHIHGREDYNRKFRERGFEIKRWEMKDMDVINGQIRIDGHRKIHIDGVTTRNTVHIIIVVYNGRVKHFEHRHE )
0.578

# get_value(readout='protease stability score', item= HEDDELLRQNVKVLLDMVETGDEHTLENMLDPHVRFEAENHHHHGRENLIRALKELLTRLGVKHWRSFEVERIDIQGDFIFLDTVFIMEVDGRKRKIKIHIVARKINGRWLIESIRLD )
1.48
